biological target: UniProtKB Q92731
Sequence (Q92731 whole entry): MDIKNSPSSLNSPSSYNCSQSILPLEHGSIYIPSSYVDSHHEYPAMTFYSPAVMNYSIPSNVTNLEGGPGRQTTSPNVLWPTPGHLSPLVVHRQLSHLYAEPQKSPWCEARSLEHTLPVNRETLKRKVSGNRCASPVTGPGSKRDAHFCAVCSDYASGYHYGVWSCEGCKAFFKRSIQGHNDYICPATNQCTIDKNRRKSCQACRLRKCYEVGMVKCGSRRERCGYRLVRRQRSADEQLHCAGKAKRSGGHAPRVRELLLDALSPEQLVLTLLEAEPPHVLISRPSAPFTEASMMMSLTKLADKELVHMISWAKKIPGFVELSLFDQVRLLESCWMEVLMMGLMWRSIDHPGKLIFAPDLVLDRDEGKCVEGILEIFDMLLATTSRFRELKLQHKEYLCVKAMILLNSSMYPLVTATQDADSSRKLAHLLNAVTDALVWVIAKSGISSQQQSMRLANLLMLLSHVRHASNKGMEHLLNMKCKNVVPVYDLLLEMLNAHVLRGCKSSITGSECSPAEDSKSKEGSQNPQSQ
Response field label takes Yes when IC50 is strictly below 2 µM and No in all other cases.

{"TEST_SMILES": "Cl.Oc1cccc2c(-c3ccccc3)c3cc4ccccc4cc3nc12", "GROUP_LABEL": "Yes"}
{"TEST_SMILES": "Cl.Oc1ccc2c(-c3ccccc3)c3cc4ccccc4cc3nc2c1", "GROUP_LABEL": "Yes"}
{"TEST_SMILES": "Cl.c1ccc(-c2c3ccccc3nc3cc4ccccc4cc23)cc1", "GROUP_LABEL": "Yes"}
{"TEST_SMILES": "Cl.Clc1c2ccccc2cc2c(-c3ccccc3)c3ccccc3nc12", "GROUP_LABEL": "No"}
{"TEST_SMILES": "Cl.Oc1ccc2cc3nc4ccccc4c(-c4ccccc4)c3cc2c1", "GROUP_LABEL": "Yes"}

###

Observed IC50 for Estrogen receptor (Homo sapiens), reported per entry below.
MEASURED_ATTRIBUTE: IC50 (µM)

{"TEST_SMILES": "Cl.c1ccc(-c2c3ccccc3nc3cc4ccccc4cc23)cc1", "MEASURED_ATTRIBUTE": "IC50", "DATA_VALUE": 9.39}
{"TEST_SMILES": "Cl.FC(F)(F)c1ccc2cc3nc4ccccc4c(-c4ccccc4)c3cc2c1", "MEASURED_ATTRIBUTE": "IC50", "DATA_VALUE": 5.34}

This collection of values is drawn from ChEMBL document CHEMBL4043216.
